biological target: HiBit-KRAS^G12C (Homo sapiens, UniProt P01116, G12C); assay: HiBit degradation assay in SW1573 HiBit-KRas^G12C cells; format: cell-based; design: expressed in transfected cells; host or cells: SW1573 (clone E6), modified pcDNA3.1 vector, TK promoter; details: SW1573, SW1573 HiBit-KRas^G12C, 0.5% DMSO, 24 hours; read-out: KRas^G12C-HiBiT (SW1573; 0.5% DMSO) Dmax**
Sequence (P01116 1-186 isoform P01116-2 G12C limits assumed): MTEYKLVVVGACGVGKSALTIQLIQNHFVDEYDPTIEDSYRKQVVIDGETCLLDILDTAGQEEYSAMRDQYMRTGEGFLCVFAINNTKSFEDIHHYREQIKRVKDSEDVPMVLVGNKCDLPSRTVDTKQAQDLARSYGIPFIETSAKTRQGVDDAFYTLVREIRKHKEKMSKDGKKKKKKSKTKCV
Here the recorded Dmax is given for each entry.

response.value for C=CC(=O)N1CCN(c2nc(OCCN3CCC4(CC3)CN(c3cc([C@@H](C(=O)N5C[C@H](O)C[C@H]5C(=O)N[C@@H](C)c5ccc(-c6scnc6C)cc5)C(C)C)on3)C4)nc3c(F)c(-c4cc(O)cc5ccccc45)c(Cl)cc23)C[C@@H]1CC#N (field: Dmax) = < 35%

Recorded result, C=CC(=O)N1CCN(c2nc(OCCN3CCC(COc4cc([C@H](C(=O)N5C[C@H](O)C[C@H]5C(=O)N[C@@H](C)c5ccc(-c6scnc6C)cc5)C(C)C)on4)CC3)nc3c(F)c(-c4cc(O)cc5ccccc45)c(Cl)cc23)CC1 (atropisomer, axis not shown) , Dmax: > 70%

Record C=CC(=O)N1CCN(c2nc(OCCN3CCC(CCOCC(=O)N[C@H](C(=O)N4C[C@H](O)C[C@H]4C(=O)N[C@@H](C)c4ccc(-c5scnc5C)cc4)C(C)(C)C)CC3)nc3c(F)c(-c4cc(O)cc5ccccc45)c(Cl)cc23)CC1 . Reported Dmax: 35 to 70%

Record summary for C=CC(=O)N1CCN(c2nc(O[C@H](C)CN3CCC(CCOCC(=O)N[C@H](C(=O)N4C[C@H](O)C[C@H]4C(=O)N[C@@H](C)c4ccc(-c5scnc5C)cc4)C(C)(C)C)CC3)nc3c(F)c(-c4cc(O)cc5ccccc45)c(Cl)cc23)CC1 : reported Dmax = 35 to 70%

The measured Dmax associated with C=CC(=O)N1CCN(c2nc(O[C@H](C)CN3CCC(OCCOCC(=O)N[C@H](C(=O)N4C[C@H](O)C[C@H]4C(=O)N[C@@H](C)c4ccc(-c5scnc5C)cc4)C(C)(C)C)CC3)nc3c(F)c(-c4c(O)cccc4F)c(Cl)cc23)CC1 reads 35 to 70%

Lookup result for C=CC(=O)N1CCN(c2nc(O[C@H]3CCC[C@@H]3N3CCC(COCC(=O)N[C@H](C(=O)N4C[C@H](O)C[C@H]4C(=O)N[C@@H](C)c4ccc(-c5scnc5C)cc4)C(C)(C)C)CC3)nc3c(F)c(-c4cc(O)cc5ccccc45)c(Cl)cc23)C[C@@H]1CC#N ; measured Dmax: 35 to 70%

What the record says about C=CC(=O)N1CCN(c2nc(O[C@H](C)CN3CCC(OCCOCC(=O)N[C@H](C(=O)N4C[C@@H](O)C[C@H]4C(=O)N[C@@H](C)c4ccc(-c5scnc5C)cc4)C(C)(C)C)CC3)nc3c(F)c(-c4cc(O)cc5ccccc45)c(Cl)cc23)CC1 : Dmax is < 35%

For this compound ( C=CC(=O)N1CCN(c2nc(OCCN3CCC(COCC(=O)N[C@H](C(=O)N4C[C@H](O)C[C@H]4C(=O)N[C@@H](C)c4ccc(-c5scnc5C)cc4)C(C)(C)C)CC3)nc3c(F)c(-c4nc(N)cc(C)c4C(F)(F)F)c(Cl)cc23)C[C@@H]1CC#N ), measured Dmax is > 70%

---

Reported Dmax values for the following compounds.
molecular target: HiBit-KRAS^G12C (Homo sapiens, UniProt P01116, G12C); assay: HiBit degradation assay in SW1573 HiBit-KRas^G12C cells; assay type: cell-based; parameters: expressed in transfected cells; host or cells: SW1573 (clone E6), modified pcDNA3.1 vector, TK promoter; settings: SW1573, SW1573 HiBit-KRas^G12C, 0.1% DMSO, 24 hours; read-out: KRas^G12C-HiBit (SW1573; 0.1% DMSO) Dmax**

Look over these answered cases.
C=CC(=O)N1CCN(c2nc(O[C@H](C)CN3CCC(OCCOCC(=O)N[C@H](C(=O)N4C[C@H](O)C[C@H]4C(=O)N[C@@H](C)c4ccc(-c5scnc5C)cc4)C(C)(C)C)CC3)nc3c(F)c(-c4cc(O)cc5ccccc45)c(Cl)cc23)C[C@@H]1CC#N [Compound 33]: 35 to 70%
C=CC(=O)N1CCN(c2nc(O[C@H](C)CN3CC(OCC(=O)N[C@H](C(=O)N4C[C@H](O)C[C@H]4C(=O)N[C@@H](C)c4ccc(-c5scnc5C)cc4)C(C)(C)C)C3)nc3c(F)c(-c4cc(O)cc5ccccc45)c(Cl)cc23)CC1 [Compound 41]: 35 to 70%
C=CC(=O)N1CCN(c2nc(OCCCN3CCC(OCC(=O)N[C@H](C(=O)N4C[C@H](O)C[C@H]4C(=O)N[C@@H](C)c4ccc(-c5scnc5C)cc4)C(C)(C)C)CC3)nc3c(F)c(-c4cc(O)cc5ccccc45)c(Cl)cc23)CC1 [Compound 25]: 35 to 70%
C=CC(=O)N1CCN(c2nc(O[C@H](C)CN3CCC(OCCOCC(=O)N[C@H](C(=O)N4C[C@H](O)C[C@H]4C(=O)N[C@@H](C)c4ccc(-c5scnc5C)cc4)C(C)(C)C)CC3)nc3c(F)c(-c4cc(O)cc5ccccc45)c(Cl)cc23)CC1 (atropisomer, axis not shown) [Compound 86]: 35 to 70%

The reported Dmax value, HiBit-KRAS^G12C (Homo sapiens, UniProt P01116, G12C), for C=CC(=O)N1CCN(c2nc(O[C@H](C)CN3CCC(OCCOCC(=O)N[C@H](C(=O)N4C[C@H](O)C[C@H]4C(=O)N[C@@H](C)c4ccc(-c5scnc5C)cc4)C(C)(C)C)CC3)nc3c(F)c(-c4cc(O)cc5ccccc45)c(Cl)cc23)[C@@H](C)C1 [Compound 39] reads 35 to 70%

Considering C=CC(=O)N1CCN(c2nc(OCCN3CCN(CCOCC(=O)N[C@H](C(=O)N4C[C@H](O)C[C@H]4C(=O)N[C@@H](C)c4ccc(-c5scnc5C)cc4)C(C)(C)C)CC3)nc3c(F)c(-c4cc(O)cc5ccccc45)c(Cl)cc23)CC1 [Compound 51] , its Dmax with HiBit-KRAS^G12C (Homo sapiens, UniProt P01116, G12C) was recorded as < 35%

---

Overview of reported Dmax across a group of molecules:
Biological target: HiBit-KRAS^G12C (Homo sapiens, UniProt P01116, G12C)
Assay: HiBit degradation assay in MiaPaCa-2 HiBit-KRas^G12C cells
Format: cell-based
Settings: MIA PaCa-2, MiaPaCa-2 HiBit-KRas^G12C cells; 0.5% DMSO; 24 hours; maximum degradation; read-out: KRas^G12C-HiBiT (MiaPaCa; 0.5% DMSO) DMax
Method: Reagents. SW1573 (CRL-2170) and MiaPaCa-2 (CRL-1420) cells were purchased from ATCC. Both cell lines are […] for the G12C mutation in KRAS. […] Either SW1573 HiBit-KRas^G12C or MiaPaCa-2 HiBit-KRas^G12C cells were plated at 9000 cells/well in a 384 well plate (Corning #3770). […] Plates were then allowed to equilibrate to room temperature and fluorescence was measured using a Perkin-Elmer EnVision. […]

C=C(F)C(=O)N1CCN(c2nc(OCCN3CCC(OCCOCC(=O)N[C@H](C(=O)N4C[C@H](O)C[C@H]4C(=O)N[C@@H](C)c4ccc(-c5scnc5C)cc4)C(C)(C)C)CC3)nc3c(F)c(-c4cc(O)cc5ccccc45)c(Cl)cc23)C[C@@H]1CC#N [Compound 170]: 35 to 70%

We next turn to a different molecule, shown below.
Record for C=CC(=O)N1CCN(c2nc(OCCN3CCC(COCC(=O)N[C@H](C(=O)N4C[C@H](O)C[C@H]4C(=O)N[C@@H](C)c4ccc(-c5scnc5C)cc4)C(C)(C)C)CC3)nc3c(F)c(-c4nc(NC)cc(C)c4C(F)(F)F)c(Cl)cc23)C[C@@H]1CC#N [Compound 98] under target or system HiBit-KRAS^G12C (Homo sapiens, UniProt P01116, G12C): Dmax reported as > 70%

---

target: HiBit-KRAS^G12C (Homo sapiens, UniProt P01116, G12C); assay: HiBit degradation assay in MiaPaCa-2 HiBit-KRas^G12C cells; assay type: cell-based; conditions: MIA PaCa-2, MiaPaCa-2 HiBit-KRas^G12C cells; 0.5% DMSO; 24 hours; maximum degradation; read-out: KRas^G12C-HiBiT (MiaPaCa; 0.5% DMSO) DMax
reported.metric: Dmax

C=CC(=O)N1CCN(c2nc(O[C@H](C)CN3CCC(OCCOCC(=O)N[C@H](C(=O)N4C[C@H](O)C[C@H]4C(=O)N[C@@H](C)c4ccc(-c5scnc5C)cc4)C(C)(C)C)CC3)nc3c(F)c(-c4cc(O)cc5ccccc45)c(Cl)cc23)CC1 (atropisomer, axis not shown): 35 to 70%
Cc1ncsc1-c1ccc([C@H](C)NC(=O)[C@@H]2C[C@@H](O)CN2C(=O)[C@@H](NC(=O)COCC2CCN(CCOc3nc(N4CCN(C(=O)/C=C/CN5CCOCC5)[C@@H](CC#N)C4)c4cc(Cl)c(-c5cc(O)cc6ccccc56)c(F)c4n3)CC2)C(C)(C)C)cc1: 35 to 70%
C=CC(=O)N1CCN(c2nc(OCCN3CCC(COCC(=O)N[C@H](C(=O)N4C[C@H](O)C[C@H]4C(=O)N[C@@H](C)c4ccc(-c5scnc5C)cc4)C(C)(C)C)CC3)nc3c(F)c(-c4nc(NC)cc5ccccc45)c(Cl)cc23)C[C@@H]1CC#N: > 70%
C=CC(=O)N1C[C@H](C)N(c2nc(OCCN3CCC(COCC(=O)N[C@H](C(=O)N4C[C@H](O)C[C@H]4C(=O)N[C@@H](C)c4ccc(-c5scnc5C)cc4)C(C)(C)C)CC3)nc3c(F)c(-c4cc(O)cc5ccccc45)c(Cl)cc23)C[C@H]1C: 35 to 70%
C=CC(=O)N1CCN(c2nc(OCCN3CCC(C)(COc4cc([C@H](C(=O)N5C[C@H](O)C[C@H]5C(=O)N[C@@H](C)c5ccc(-c6scnc6C)cc5)C(C)C)on4)CC3)nc3c(F)c(-c4cc(O)cc5ccccc45)c(Cl)cc23)C[C@@H]1CC#N: > 70%
C=CC(=O)N1CCN(c2nc(OCCN3CCC(COc4cc([C@@H](C(=O)N5C[C@H](O)C[C@H]5C(=O)N[C@@H](C)c5ccc(C#N)cc5)C(C)C)on4)CC3)nc3c(F)c(-c4cc(O)cc5ccccc45)c(Cl)cc23)C[C@@H]1CC#N: 35 to 70%

Entry C=C(F)C(=O)N1CCN(c2nc(OCCN3CCC4(CC3)CN(c3cc([C@H](C(=O)N5C[C@H](O)C[C@H]5C(=O)N[C@@H](C)c5ccc(-c6ccnn6C)cc5)C(C)C)on3)C4)nc3c(F)c(-c4cc(O)cc5ccccc45)c(Cl)cc23)C[C@@H]1CC#N (atropisomer, axis not shown) ; Dmax = > 70%
